TARGET_DESC: Rhodesain (Trypanosoma brucei rhodesiense) (UniProt Q95PM0)
Sequence (Q95PM0 1-450): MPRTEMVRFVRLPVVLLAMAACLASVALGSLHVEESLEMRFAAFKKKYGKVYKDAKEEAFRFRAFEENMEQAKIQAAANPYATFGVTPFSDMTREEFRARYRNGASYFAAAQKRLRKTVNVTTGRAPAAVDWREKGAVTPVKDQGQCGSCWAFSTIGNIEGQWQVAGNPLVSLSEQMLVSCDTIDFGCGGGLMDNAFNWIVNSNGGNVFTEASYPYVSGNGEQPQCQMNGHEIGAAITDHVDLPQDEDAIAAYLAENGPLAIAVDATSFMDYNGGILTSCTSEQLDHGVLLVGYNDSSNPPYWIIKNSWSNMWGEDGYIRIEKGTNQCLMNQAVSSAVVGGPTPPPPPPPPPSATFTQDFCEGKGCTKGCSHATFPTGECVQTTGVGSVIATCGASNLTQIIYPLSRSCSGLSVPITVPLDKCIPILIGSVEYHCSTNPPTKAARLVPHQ
ASSAY: Inhibition of Trypanosoma brucei rhodesiense rhodesain using Cbz-Phe-Arg-7-amino-4-methylcoumarin assessed as substrate hydrolysis at 100 uM measured by fluorescence analysis for 10 mins
Each entry below carries its reported inhibition.
VALUE_TYPE: inhibition

                                    molecule  value_reported
 0  O=C(N[C@@H](CCc1ccccc1)C(=O)N1C[C@@H]2C(Br)=NO[C@@H]2C1)OCC1CC1           15.7%
 1  C=CCOC(=O)N[C@@H](Cc1ccccc1)C(=O)N1CC2ON=C(Br)C2C1 (mixture of isomers)           > 40%
 2  C=CCOC(=O)N[C@@H](CCc1ccccc1)C(=O)N1CC2ON=C(Br)C2C1 (mixture of isomers)           > 40%
 3  C=CCOC(=O)N[C@@H](CCc1ccccc1)C(=O)N1C[C@@H]2C(Br)=NO[C@@H]2C1           > 40%
 4  CC(C)(C)OC(=O)N[C@@H](CCc1ccccc1)C(=O)N1CC2ON=C(Br)C2C1 (mixture of isomers)            5.8%
 5  CCCOC(=O)N[C@@H](CC(C)C)C(=O)N1CC2ON=C(Br)C2C1 (mixture of isomers)           11.3%
 6  C=CCOC(=O)N[C@@H](CC(C)C)C(=O)N1C[C@@H]2C(Br)=NO[C@@H]2C1           > 40%
 7  C=CCOC(=O)N[C@@H](Cc1ccccc1)C(=O)N1C[C@@H]2C(Br)=NO[C@@H]2C1           > 40%
 8  O=C(N[C@@H](Cc1ccccc1)C(=O)N1CC2ON=C(Br)C2C1)OCc1ccccc1 (mixture of isomers)           > 40%
 9  CC(C)C[C@H](NC(=O)OC(C)(C)C)C(=O)N1CC2ON=C(Br)C2C1 (mixture of isomers)           > 40%
10  C=CCOC(=O)N[C@@H](Cc1ccccc1)C(=O)N1C[C@@H]2ON=C(Br)[C@@H]2C1           > 40%
11  CC(C)C[C@H](NC(=O)OCc1ccccc1)C(=O)N1CC2ON=C(Br)C2C1 (mixture of isomers)            8.3%
12  C=CCOC(=O)N[C@@H](CC(C)C)C(=O)N1C[C@@H]2ON=C(Br)[C@@H]2C1           > 40%
13  C=CCOC(=O)N[C@@H](CC(C)C)C(=O)N1CC2ON=C(Br)C2C1 (mixture of isomers)           > 40%
14  CCCOC(=O)N[C@@H](CCc1ccccc1)C(=O)N1CC2ON=C(Br)C2C1 (mixture of isomers)           15.3%

###

Each entry below carries its reported inhibition.
TARGET_DESC: Rhodesain (Trypanosoma brucei rhodesiense) (UniProt Q95PM0)
ASSAY: Inhibition of Trypanosoma brucei rhodesiense rhodesain using Cbz-Phe-Arg-7-amino-4-methylcoumarin assessed as substrate hydrolysis at 100 uM measured by fluorescence analysis for 10 mins
VALUE_TYPE: inhibition

>>> df
                                   molecule                               target_desc  value_reported
0  CCCOC(=O)N[C@@H](Cc1ccccc1)C(=O)N1CC2ON=C(Br)C2C1 (mixture of isomers)  Rhodesain (Trypanosoma brucei rhodesiense) (UniProt Q95PM0)           13.1%
1  CC(C)(C)OC(=O)N[C@@H](Cc1ccccc1)C(=O)N1CC2ON=C(Br)C2C1 (mixture of isomers)  Rhodesain (Trypanosoma brucei rhodesiense) (UniProt Q95PM0)           > 40%
2  O=C(N[C@@H](CCc1ccccc1)C(=O)N1C[C@@H]2C(Br)=NO[C@@H]2C1)OCc1ccc([N+](=O)[O-])cc1  Rhodesain (Trypanosoma brucei rhodesiense) (UniProt Q95PM0)           > 40%
3  C=CCOC(=O)N[C@@H](CCc1ccccc1)C(=O)N1C[C@@H]2ON=C(Br)[C@@H]2C1  Rhodesain (Trypanosoma brucei rhodesiense) (UniProt Q95PM0)           > 40%
